- Tested on: C. albicans Y537
- run.description: MIC, YPD broth
- Format: cell-based, Candida albicans
- details: Table 8
Ends that are not written are not given here.
measured.parameter: MIC C. albicans Y537 (µg/mL)
Answer in µg/mL, number only, no unit symbol.

Ask | Item TVGGLVKWILKTVKKFA-NH2 [STIP3-29, TVGGLVKWILKTVKKFA-NH2] has what recorded MIC C. albicans Y537?
Reply | 25

Ask | Item TVKFLVKWILKWVAKFA [STIP3-25, TVKFLVKWILKWVAKFA] has what recorded MIC C. albicans Y537?
Reply | 25

Ask | Item TVKGLVKWILNVVKKFA-NH2 [STIP3-30, TVKGLVKWILNVVKKFA-NH2] has what recorded MIC C. albicans Y537?
Reply | 50

Ask | Item TVGGLVKWILATVKKFA-NH2 [STIP3-28, TVGGLVKWILATVKKFA-NH2] has what recorded MIC C. albicans Y537?
Reply | 25

Ask | Item TVKGLVKWILNVVKKFA [STIP3-14, TVKGLVKWILNVVKKFA] has what recorded MIC C. albicans Y537?
Reply | 50

Ask | Item TVGGLVKWILDTVKKFA-NH2 [STIP3-27, TVGGLVKWILDTVKKFA-NH2] has what recorded MIC C. albicans Y537?
Reply | 50

Ask | Item TVGGLVKWILKTVKKFA [STIP3-3, TVGGLVKWILKTVKKFA] has what recorded MIC C. albicans Y537?
Reply | 50

###

- Tested on: S. aureus ATCC BAA-44 (MRSA SCCmec type I)
- run.description: MIC, broth dilution
- Assay type: cell-based, Staphylococcus aureus
- details: Table 5; STIP3 variants, highest concentration 100 μg/mL
Ends that are not written are not given here.
Record form. Attribute: MIC S. aureus ATCC BAA 44 (I). Fill in for each entry.
Could you kindly put the unit after your number?

Ask | Query for S. aureus ATCC BAA-44 (MRSA SCCmec type I): what MIC S. aureus ATCC BAA 44 (I) does the record show for TVGGLVKWILDWVKKFA [STIP3-10, TVGGLVKWILDWVKKFA] ?
Reply | 200 µg/mL

Ask | Query for S. aureus ATCC BAA-44 (MRSA SCCmec type I): what MIC S. aureus ATCC BAA 44 (I) does the record show for TVGVLVKWILDTVKKFA [STIP3-8, TVGVLVKWILDTVKKFA] ?
Reply | 100 µg/mL

Ask | Query for S. aureus ATCC BAA-44 (MRSA SCCmec type I): what MIC S. aureus ATCC BAA 44 (I) does the record show for TVGGLVKWILNTVKKFA [STIP3-4, TVGGLVKWILNTVKKFA] ?
Reply | 50 µg/mL

Ask | Query for S. aureus ATCC BAA-44 (MRSA SCCmec type I): what MIC S. aureus ATCC BAA 44 (I) does the record show for TVKKLVKWILKTVKKFA [STIP3-18, TVKKLVKWILKTVKKFA] ?
Reply | 100 µg/mL

Ask | Query for S. aureus ATCC BAA-44 (MRSA SCCmec type I): what MIC S. aureus ATCC BAA 44 (I) does the record show for TVKGLVKWILATVKKFA [STIP3-16, TVKGLVKWILATVKKFA] ?
Reply | 100 µg/mL

###

Record form. Attribute: α helicity (%). Fill in for each entry.
- run.description: Circular dichroism spectroscopy
- Type: physicochemical
- details: CD, 50% (v/v) TFE
Ends that are not written are not given here.
Answer in %, number only, no unit symbol.

Ask | Item H-MTKDIVETVGGLVKWILDTVKKFA [δ-toxin (df), reference compound] has what recorded α helicity (%)?
Reply | 87

Ask | Item TVGGLVKWILATVKKFA [STIP3-2, TVGGLVKWILATVKKFA] has what recorded α helicity (%)?
Reply | 50

Ask | Item TVGGLVKWILKTVKKFA-NH2 [STIP3-29, TVGGLVKWILKTVKKFA-NH2] has what recorded α helicity (%)?
Reply | 61

Ask | Item TVGGLVKWILATVKKFA-NH2 [STIP3-28, TVGGLVKWILATVKKFA-NH2] has what recorded α helicity (%)?
Reply | 75

Ask | Item TVKGLVKWILNVVKKFA [STIP3-14, TVKGLVKWILNVVKKFA] has what recorded α helicity (%)?
Reply | 64

Ask | Item TVKGLVKWILATVKKFA [STIP3-16, TVKGLVKWILATVKKFA] has what recorded α helicity (%)?
Reply | 45

Ask | Item TVGGLVKWILKTVKKFA-NH2 [STIP3-29-D3] has what recorded α helicity (%)?
Reply | 32

Measured values drawn from patent US12370235B2 for this set.
